System: RAW264.7 cell line
Assay: Cytokine inhibition ability: LPS-induced cytokine gene expression in RAW264.7 macrophages
Type: cell-based, mouse
Details: grade of reduction rate of gene expression, peptide 100 nM, LPS 200 ng/mL, 6 hours
Experimental: The present inventors observed the cytokine inhibition ability of the immunomodulatory peptide candidates prepared according to one example of the present invention. Specifically, to confirm whether the peptides reduce inflammatory responses in cells, changes in cytokine gene expression in cells upon inflammation was measured. […]
Peptide text beside a SMILES is read from it.

compound | Cytokine inhibition ability TNFα
CSCC[C@H](N)C(=O)N[C@@H](CCCCN)C(=O)N[C@@H](Cc1ccc(O)cc1)C(=O)N[C@@H](CCCCN)C(=O)N1CCC[C@H]1C(=O)N[C@H](CCSC)C(N)=O [Peptide 70] (HELM PEPTIDE1{M.K.Y.K.P.[dM].[am]}$$$$V2.0) | C (41%-60%)
CCCC(=O)N[C@@H](CCSC)C(=O)N[C@@H](CCCCN)C(=O)N[C@@H](Cc1ccc(O)cc1)C(=O)N[C@@H](Cc1c[nH]c2ccccc12)C(=O)N1CCC[C@H]1C(=O)N[C@H](CCSC)C(N)=O [Peptide 115] (HELM PEPTIDE1{[CCCC(=O)[*:2]].M.K.Y.W.P.[dM].[am]}$$$$V2.0) | C (41%-60%)
